Origin of the recorded values: PubChem BioAssay (NCI)

test system: HCC-2998 colon; assay: NCI-60 one-dose screen, 48 h (100 = growth as untreated, 0 = no growth, -100 = all killed); conditions: 10 µM unless noted
The panel holds about 83,000 compounds, 20% with a hit somewhere; the sample as a whole holds those more often. The source made the active and inactive calls. How the source made its calls: active means growth percent below 10; inactive means the rest.
measurementType: growth

Here's what some known entries look like.
compound: O=C(Nc1ccc2ncnc(Nc3ccc(Oc4cccc(F)c4)c(Cl)c3)c2c1)c1ccc(CNCCO)cc1
growth: -8.44% (active)
--
compound: O=S(=O)(NCCCNc1nccc(-c2c(-c3ccccc3)nc3occn23)n1)c1ccc(Cl)cc1
growth: 102% (inactive)
--
compound: COc1ccccc1/C=C1\COc2ccc(-c3ccccc3)cc2C1=O
growth: 51.6% (inactive)

# ---- query compound ----
Ask: Give its growth value. Item: CC(N)C(=O)NNc1n[nH]c(=S)n1N (configuration not stated)
Reply: 102% (inactive)

----------
test system: EKVX NSCLC; test: NCI-60 one-dose screen, 48 h (100 = growth as untreated, 0 = no growth, -100 = all killed); conditions: 10 µM unless noted
About 83,000 compounds went through this panel and 20% of them were active in at least one assay; those are over-represented in the sample as a whole.
growth by entry:
Please respond with the number in % and leave the unit unwritten.

compound: O=c1nc2n(nc1/C=C/c1ccco1)CC(c1ccc(Cl)cc1)=NN2
observedResult: 72.1
//
compound: CCCCCCNC(=O)Oc1ccc(/C(=C(/CC)Cc2ccccc2)c2ccc(OCCN(CC)CC)cc2)cc1
observedResult: 81
//
compound: COc1ccc(Nn2c(SCC(=O)Nc3nc(-c4ccc(Cl)cc4)cs3)nc(C)c2C)cc1
observedResult: 41.9

# ---- query compound ----
Ask: # get_value(readout= growth, system= EKVX NSCLC) for C[C@@H]1CN(Cc2ccc(/C=C/c3n[nH]c4ccc5nc(-c6cn[nH]c6C(F)(F)F)c6c(c5c34)CCCC6)cc2)C[C@H](C)O1
Reply: 32.4

----------
test system: M14 melanoma; assay: NCI-60 one-dose screen, 48 h; details: 10 µM unless noted
About 83,000 compounds went through this panel and 20% of them were active in at least one assay; those are over-represented in the sample as a whole. Calls of active or inactive are those of the source. Rule for the calls: active = growth percent below 10; inactive = the rest.
Hi! Could you answer with just one of these? active, inactive

Below are worked cases with known answers.
structureSmilesString: O=C(O)c1cn(C2CC2)c2cc(N3CCN(C(=O)C[n+]4cccc5ccccc54)CC3)c(F)cc2c1=O
discreteLabel: inactive

structureSmilesString: CCCCCCCCCCCCCCCC(=O)OC[C@@]1(O)C[C@@]23CC[C@@H]4C(C)(C)[C@H](O)CC[C@@]4(C)[C@@H]2CC[C@H]1C3
discreteLabel: active

structureSmilesString: O=C(O)C(/C=C/c1ccco1)=N\Nc1nc(-c2ccc(Cl)cc2)cs1
discreteLabel: inactive

Now examine the next entry.
Ask: Dear all, I need the recorded test outcome for COc1ccc2c(c1)c(CC(=O)NCCOCCOCC(=O)Nc1ccc(OC)c(C(N)=O)c1O)c(C)n2C(=O)c1ccc(Cl)cc1 , thank you.
Reply: inactive

----------
system: SN12C renal; assay: NCI-60 one-dose screen, 48 h; settings: 10 µM unless noted
The panel holds about 83,000 compounds, 20% with a hit somewhere; the sample as a whole holds those more often. The source made the active and inactive calls. How the source made its calls: active means growth percent below 10; inactive means the rest.
Hi! Could you answer with just one of these? true (1) for active, false (0) for inactive

molecule: CN1CCN(CCCOc2ccc3ncnc(Nc4ccc(Oc5cccc(C(F)(F)F)c5)c(Cl)c4)c3c2)CC1
discreteLabel: false (0)

molecule: O=S(=O)(NCCNc1nccc(-c2c(-c3ccc(F)c(O)c3)nc3occn23)n1)c1ccccc1
discreteLabel: false (0)

molecule: CC(=O)N1c2ccccc2NC2=C(C(=O)N(C)C2(C)C)C1C (stereo not given)
discreteLabel: false (0)

molecule: COc1cc2ncnc(Nc3ccc(C(=O)/C=C/c4ccc(C(F)(F)F)cc4F)cc3)c2cc1OC
discreteLabel: false (0)

molecule: CCCC/C(=N\N=C(N)N)c1ccc(F)cc1
discreteLabel: false (0)

molecule: Cc1c2c(cc[n+]1Cc1ccc(F)cc1)c1ccc(OCc3cccc(F)c3)cc1n2Cc1cccc(F)c1
discreteLabel: true (1)

Ask: Dear all, I need the recorded test outcome for COc1cccc(C(Cc2ccccc2)Nc2ccccc2)c1OC (stereo not given) , thank you.
Reply: false (0)

Ask: Same again, this time with CC1=NNC(=O)C1CCC(=O)N/N=C(\C)c1ccc2ccccc2c1 (stereo not given)
Reply: false (0)

Ask: Same again, this time with COc1ccc(-c2nc(N/N=C/c3ccco3)nc(N3CCOCC3)c2C#N)cc1
Reply: false (0)

Ask: Same again, this time with COC(=O)C1NC(=S)N(c2ccc(Cl)cc2)C1/C=C/c1ccccc1 (stereo not given)
Reply: false (0)

----------
System: SK-MEL-28 melanoma
Test: NCI-60 one-dose screen, 48 h
Conditions: 10 µM unless noted
Description: Growth inhibition of the SK-MEL-28 human tumor cell line is measured as a screen for anti-cancer activity. Cells are grown in 96 well plates and exposed to the test compound for 48 hours. Compounds are tested at a single concentration, which is 10^-5 M for most compounds. The reported endpoint is percent growth (GI% or GIPRCNT), where numbers from 0 - 100% represent growth inhibition, and numbers from -100% - 0 represent cell death. For example, a value of 40 represents 60% growth inhibition. […]
The panel holds about 83,000 compounds, 20% with a hit somewhere; the sample as a whole holds those more often. Activity calls are given as the source filed them. The calls were made as follows: active = growth percent below 10; inactive = the rest.
Hi! Could you answer with just one of these? True = active, False = inactive

Below are worked cases with known answers.
compound: N/C(=N\N=C\c1cc2ccccc2s1)N/N=C/c1cc2ccccc2s1
discreteLabel: False
--
compound: CCc1c(Nc2ccc(C)cc2)[nH]c(N)nc1=S
discreteLabel: False
--
compound: CCOC(=O)c1c(SC)nn(-c2cc(=O)[nH]c3ccc(Br)cc23)c1N
discreteLabel: False
--
compound: CCOc1cc(CNc2ccc(N3CCOCC3)c(C(=O)O)c2)ccc1OC
discreteLabel: False
--
compound: COc1cc(COC(=O)CCCCC[P+](c2ccccc2)(c2ccccc2)c2ccccc2)c(OC)c2c1OCO2
discreteLabel: False
--
compound: O=C(Nc1nc(-c2ccccc2Cl)cs1)c1cc(-c2ccccc2)nc2ccc(Cl)cc12
discreteLabel: False
--
compound: COc1ccc(C(O)c2cc3c(N)c(C(=O)Nc4ccc(Cl)cc4)sc3nc2C)cc1 (stereo not given)
discreteLabel: False
--
compound: Cn1c(COC(=O)N2CCCCC2)nc2c(N3CCOCC3)nc(-c3ccccc3)nc21
discreteLabel: True

Ask: Dear all, I need the recorded test outcome for COc1ccc2c(c1)OC13Oc4cc(OC)ccc4C=C1CCCC3=C2 , thank you.
Reply: False

Ask: Same again, this time with COc1ccc(-c2nc(SC)nc(N3CCOCC3)c2C#N)cc1
Reply: False

----------
growth by entry:
System: LOX IMVI melanoma
Experiment: NCI-60 one-dose screen, 48 h (100 = growth as untreated, 0 = no growth, -100 = all killed)
Details: 10 µM unless noted
Protocol: Growth inhibition of the LOX IMVI human tumor cell line is measured as a screen for anti-cancer activity. Cells are grown in 96 well plates and exposed to the test compound for 48 hours. Compounds are tested at a single concentration, which is 10^-5 M for most compounds. The reported endpoint is percent growth (GI% or GIPRCNT), where numbers from 0 - 100% represent growth inhibition, and numbers from -100% - 0 represent cell death. For example, a value of 40 represents 60% growth inhibition. […]
The panel holds about 83,000 compounds, 20% with a hit somewhere; the sample as a whole holds those more often.
Please respond with the number in % and leave the unit unwritten.

compound: Cn1c(=O)c2[nH]c(CCCc3nc4c([nH]3)c(=O)n(C)c(=O)n4C)nc2n(C)c1=O
growth / %: 105

Ask: Give its growth value. Item: Nc1c(C(=O)Nc2ccc(Cl)cc2)cc(-c2nc3ccccc3s2)c(=O)n1NS(=O)(=O)c1ccc(Cl)cc1
Reply: 99.3

Ask: Same again, this time with O=C1NC(=S)NC(=O)C1=Cc1cccc(C=C2C(=O)NC(=S)NC2=O)c1
Reply: 102

Ask: Same again, this time with COc1ccc(-c2nc(SCCC(C)C)nc(N/N=C(/C)c3ccc(C)cc3)c2C#N)cc1
Reply: 91

Ask: Same again, this time with Clc1cc(Cl)cc(N2N=C(c3cccc(Nc4ccncc4)c3)CC2c2ccc(Br)cc2)c1 (configuration not stated)
Reply: -88.4

Ask: Same again, this time with O=S(=O)(NCCNc1nccc(-c2c(-c3ccc(F)c(O)c3)nc3occn23)n1)c1ccccc1
Reply: 33.7

----------
system: M14 melanoma; assay: NCI-60 one-dose screen, 48 h; settings: 10 µM unless noted
This is part of a sample that, as a whole, favours compounds with a hit. Of some 83,000 tested, about 20% had one in any assay. The source made the active and inactive calls. Rule for the calls: active = growth percent below 10; inactive = the rest.
Hi! Could you answer with just one of these? active, inactive

Ask: Dear all, I need the recorded test outcome for BrC(Br)(Br)c1cnc2ccccc2n1 , thank you.
Reply: inactive

Ask: Same again, this time with Cc1nc2sc(C(=O)Nc3ccccc3)c(N)c2cc1C(=O)c1ccc(C(F)(F)F)cc1
Reply: inactive

Ask: Same again, this time with CC(=O)OCCCCCNc1ccccc1
Reply: inactive
